Biological target: recombinant homotrimeric HA, A/Netherlands/219/03 H7N7 (Influenza A virus A/Netherlands/219/03 (H7N7))
Assay: trimeric HA microarray, transfection set 2
Details: remark: other sources report otherwise
observed.property: Trimeric HA Binding RLU (RLU)
Numbers only, in RLU.

Known results for binders:
>  <binder>
TCN-527 (5086_C06) (antibody, V domains shown) VH: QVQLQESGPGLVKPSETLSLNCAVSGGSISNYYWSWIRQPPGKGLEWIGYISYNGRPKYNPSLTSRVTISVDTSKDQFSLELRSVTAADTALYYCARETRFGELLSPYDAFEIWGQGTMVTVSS VL: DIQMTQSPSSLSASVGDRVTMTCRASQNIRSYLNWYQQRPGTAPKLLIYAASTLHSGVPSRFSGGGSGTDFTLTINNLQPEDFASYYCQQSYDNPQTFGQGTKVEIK

>  <result>
49100

$$$$
>  <binder>
TCN-563 (5237_B21) (antibody, V domains shown) VH: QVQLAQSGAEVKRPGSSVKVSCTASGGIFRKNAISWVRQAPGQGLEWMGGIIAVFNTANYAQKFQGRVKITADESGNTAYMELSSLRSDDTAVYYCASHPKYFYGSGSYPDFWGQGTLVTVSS VL: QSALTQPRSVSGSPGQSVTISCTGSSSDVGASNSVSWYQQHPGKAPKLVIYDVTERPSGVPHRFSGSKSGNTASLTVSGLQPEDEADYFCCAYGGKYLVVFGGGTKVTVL

>  <result>
5420

$$$$

Now look at this one.
Param item = TCN-528 (5087_P17) (antibody, V domains shown) VH: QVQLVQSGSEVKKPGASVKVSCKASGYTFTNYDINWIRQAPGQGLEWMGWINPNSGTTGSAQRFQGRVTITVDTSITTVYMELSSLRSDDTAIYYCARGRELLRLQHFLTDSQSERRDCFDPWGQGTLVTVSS VL: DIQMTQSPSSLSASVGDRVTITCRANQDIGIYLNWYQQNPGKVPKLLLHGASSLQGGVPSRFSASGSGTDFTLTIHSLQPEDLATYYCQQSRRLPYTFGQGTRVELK ; retrieve measured Trimeric HA Binding RLU.
47200

meta.source: patent US20120207760A1
